targetUnderTest: PDGFRβ (Rattus norvegicus (Rat))
assaySummary: PDGFRβ Cellular Assay (PDGFRb P-Y751 HTRF in A10 cells stimulated with PDGF-BB)
Type: cell-based
conditionNotes: read-out: PDGFR Cellular IC50
pIC50: −log10 of the molar value.
Consider the following compounds and their measured pIC50 readings.

>  <smilesRepresentation>
Cc1ncc(NC(=O)CN2CCOCC23CCC3)cc1NC(=O)c1cnn2cc(-c3cnn(C)c3)sc12

>  <pIC50>
7.92

$$$$
>  <smilesRepresentation>
COc1ncccc1-c1cn2ncc(C(=O)Nc3cc(C(=O)NCCN4CCC[C@H]4C)cnc3C)c2s1

>  <pIC50>
8.21

$$$$
>  <smilesRepresentation>
Cc1ncc(C(=O)NCCN2CC3CCC2CC3)cc1NC(=O)c1cnn2cc(-c3cnn(C4CC4)c3)sc12

>  <pIC50>
7.79

$$$$
>  <smilesRepresentation>
Cc1ncc(NC(=O)CN2[C@H](C)COC[C@H]2C)cc1NC(=O)c1cnn2cc(-c3cnn(C)c3)sc12

>  <pIC50>
8.17

$$$$
>  <smilesRepresentation>
Cc1ncc(NC(=O)[C@@H]2CCCN2C)cc1NC(=O)c1cnn2cc(-c3cnn4c3OCCC4)sc12

>  <pIC50>
8.04

$$$$
>  <smilesRepresentation>
Cc1ncc(NC(=O)CN2CCC3(CC2)CC3)cc1NC(=O)c1cnn2cc(-c3cnn(CCO)c3)sc12

>  <pIC50>
7.95

$$$$

====

targetUnderTest: PDGFRβ (Rattus norvegicus (Rat), UniProt Q05030)
Sequence (Q05030 32-1097): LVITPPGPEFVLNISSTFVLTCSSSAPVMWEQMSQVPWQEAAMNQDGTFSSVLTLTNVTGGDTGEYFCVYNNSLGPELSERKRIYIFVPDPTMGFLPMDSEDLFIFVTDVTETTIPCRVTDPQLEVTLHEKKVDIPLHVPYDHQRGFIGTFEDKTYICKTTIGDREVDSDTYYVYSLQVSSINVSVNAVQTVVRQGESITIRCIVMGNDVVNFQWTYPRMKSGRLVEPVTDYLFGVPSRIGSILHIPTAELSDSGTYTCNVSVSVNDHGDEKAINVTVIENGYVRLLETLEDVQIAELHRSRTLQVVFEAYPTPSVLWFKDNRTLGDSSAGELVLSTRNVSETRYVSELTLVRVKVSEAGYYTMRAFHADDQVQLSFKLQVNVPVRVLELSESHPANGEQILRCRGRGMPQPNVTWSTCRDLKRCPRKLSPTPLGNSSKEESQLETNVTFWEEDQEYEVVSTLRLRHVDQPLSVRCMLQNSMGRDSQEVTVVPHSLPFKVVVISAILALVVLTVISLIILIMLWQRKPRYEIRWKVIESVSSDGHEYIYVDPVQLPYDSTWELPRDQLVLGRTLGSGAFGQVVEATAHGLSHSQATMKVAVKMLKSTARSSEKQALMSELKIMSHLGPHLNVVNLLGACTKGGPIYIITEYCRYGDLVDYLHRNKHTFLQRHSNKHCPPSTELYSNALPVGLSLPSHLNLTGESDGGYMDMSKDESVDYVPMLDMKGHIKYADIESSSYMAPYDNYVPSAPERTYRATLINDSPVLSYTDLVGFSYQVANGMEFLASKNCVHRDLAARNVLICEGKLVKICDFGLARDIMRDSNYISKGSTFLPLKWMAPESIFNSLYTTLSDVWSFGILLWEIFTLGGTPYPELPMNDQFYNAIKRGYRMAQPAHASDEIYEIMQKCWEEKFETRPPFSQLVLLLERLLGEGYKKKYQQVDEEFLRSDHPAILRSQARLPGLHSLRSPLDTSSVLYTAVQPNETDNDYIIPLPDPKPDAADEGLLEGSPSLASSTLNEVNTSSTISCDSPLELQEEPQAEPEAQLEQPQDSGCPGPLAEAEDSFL
assaySummary: PDGFRβ Cellular Assay (PDGFRb P-Y751 HTRF in A10 cells stimulated with PDGF-BB)
Assay type: cell-based
conditionNotes: PDGFR Cellular IC50
readoutLabel: IC50 (nM)

>  <compound>
Cc1cc(C(=O)NCC(C)(C)N2CCCC2)sc1NC(=O)c1cnn2cc(-c3cnn(C)c3)sc12

>  <targetUnderTest>
PDGFRβ (Rattus norvegicus (Rat), UniProt Q05030)

>  <unitsText>
nM

>  <sign>
>

>  <reportedMeasurement>
3000

$$$$
>  <compound>
Cc1ncc(NC(=O)OC[C@@H]2CCCN2C)cc1NC(=O)c1cnn2cc(-c3cnn(C)c3)sc12

>  <targetUnderTest>
PDGFRβ (Rattus norvegicus (Rat), UniProt Q05030)

>  <unitsText>
nM

>  <sign>
=

>  <reportedMeasurement>
20.3

$$$$
>  <compound>
Cc1ncc(NC(=O)CN2CC(C)(C)C2)cc1NC(=O)c1cnn2cc(-c3c(C)noc3C)sc12

>  <targetUnderTest>
PDGFRβ (Rattus norvegicus (Rat), UniProt Q05030)

>  <unitsText>
nM

>  <sign>
=

>  <reportedMeasurement>
10.3

$$$$
>  <compound>
Cc1cc(C(=O)NCCN2[C@H](C)CCC[C@@H]2C)sc1NC(=O)c1cnn2cc(-c3cnn(C)c3)sc12

>  <targetUnderTest>
PDGFRβ (Rattus norvegicus (Rat), UniProt Q05030)

>  <unitsText>
nM

>  <sign>
=

>  <reportedMeasurement>
105

$$$$
>  <compound>
Cc1ncc(NC(=O)CN(C)C2CCOCC2)cc1NC(=O)c1cnn2cc(-c3cnn(CS(C)(=O)=O)c3)sc12

>  <targetUnderTest>
PDGFRβ (Rattus norvegicus (Rat), UniProt Q05030)

>  <unitsText>
nM

>  <sign>
=

>  <reportedMeasurement>
236

$$$$
>  <compound>
COC/C=C/c1cn2ncc(C(=O)Nc3cc(NC(=O)CN4C[C@H](C)O[C@@H](C)C4)cnc3C)c2s1 (relative stereo)

>  <targetUnderTest>
PDGFRβ (Rattus norvegicus (Rat), UniProt Q05030)

>  <unitsText>
nM

>  <sign>
=

>  <reportedMeasurement>
18.6

$$$$
>  <compound>
Cc1ncc(NC(=O)CN2CCOC[C@@H]2C)cc1NC(=O)c1cnn2cc(-c3cnn(C)c3)sc12

>  <targetUnderTest>
PDGFRβ (Rattus norvegicus (Rat), UniProt Q05030)

>  <unitsText>
nM

>  <sign>
=

>  <reportedMeasurement>
41.6

$$$$
>  <compound>
COc1ncccc1-c1cn2ncc(C(=O)Nc3cc(NC(=O)CN4CCO[C@H](C)C4)cnc3C)c2s1

>  <targetUnderTest>
PDGFRβ (Rattus norvegicus (Rat), UniProt Q05030)

>  <unitsText>
nM

>  <sign>
=

>  <reportedMeasurement>
3.8

$$$$
>  <compound>
Cc1ncc(NC(=O)CN2CCC[C@@H]2C)cc1NC(=O)c1cnn2cc(-c3cn(C)nc3C)sc12

>  <targetUnderTest>
PDGFRβ (Rattus norvegicus (Rat), UniProt Q05030)

>  <unitsText>
nM

>  <sign>
=

>  <reportedMeasurement>
3.7

$$$$
>  <compound>
COCCCc1cn2ncc(C(=O)Nc3cc(C(=O)NCCN4CCCC4(C)C)cnc3C)c2s1

>  <targetUnderTest>
PDGFRβ (Rattus norvegicus (Rat), UniProt Q05030)

>  <unitsText>
nM

>  <sign>
=

>  <reportedMeasurement>
59.2

$$$$
>  <compound>
Cc1ncc(NC(=O)CN2CCCC[C@H]2C)cc1NC(=O)c1cnn2cc(-c3cnn(CCO)c3)sc12

>  <targetUnderTest>
PDGFRβ (Rattus norvegicus (Rat), UniProt Q05030)

>  <unitsText>
nM

>  <sign>
=

>  <reportedMeasurement>
10.1

$$$$
>  <compound>
CCCNCC(=O)Nc1cnc(C)c(NC(=O)c2cnn3cc(-c4cnn5c4OCCC5)sc23)c1

>  <targetUnderTest>
PDGFRβ (Rattus norvegicus (Rat), UniProt Q05030)

>  <unitsText>
nM

>  <sign>
=

>  <reportedMeasurement>
15

$$$$
>  <compound>
Cc1ncc(NC(=O)CCN2CCCC2(C)C)cc1NC(=O)c1cnn2cc(-n3ncc4cccnc43)sc12

>  <targetUnderTest>
PDGFRβ (Rattus norvegicus (Rat), UniProt Q05030)

>  <unitsText>
nM

>  <sign>
=

>  <reportedMeasurement>
3.1

$$$$
>  <compound>
COC/C=C/c1cn2ncc(C(=O)Nc3cc(C(=O)NCCN4CCCC4(C)C)cnc3C)c2s1

>  <targetUnderTest>
PDGFRβ (Rattus norvegicus (Rat), UniProt Q05030)

>  <unitsText>
nM

>  <sign>
=

>  <reportedMeasurement>
14.9

$$$$

====

targetUnderTest: Tb-labeled inactive PDGFRβ (Homo sapiens (Human))
Sequence (P09619 33-1106): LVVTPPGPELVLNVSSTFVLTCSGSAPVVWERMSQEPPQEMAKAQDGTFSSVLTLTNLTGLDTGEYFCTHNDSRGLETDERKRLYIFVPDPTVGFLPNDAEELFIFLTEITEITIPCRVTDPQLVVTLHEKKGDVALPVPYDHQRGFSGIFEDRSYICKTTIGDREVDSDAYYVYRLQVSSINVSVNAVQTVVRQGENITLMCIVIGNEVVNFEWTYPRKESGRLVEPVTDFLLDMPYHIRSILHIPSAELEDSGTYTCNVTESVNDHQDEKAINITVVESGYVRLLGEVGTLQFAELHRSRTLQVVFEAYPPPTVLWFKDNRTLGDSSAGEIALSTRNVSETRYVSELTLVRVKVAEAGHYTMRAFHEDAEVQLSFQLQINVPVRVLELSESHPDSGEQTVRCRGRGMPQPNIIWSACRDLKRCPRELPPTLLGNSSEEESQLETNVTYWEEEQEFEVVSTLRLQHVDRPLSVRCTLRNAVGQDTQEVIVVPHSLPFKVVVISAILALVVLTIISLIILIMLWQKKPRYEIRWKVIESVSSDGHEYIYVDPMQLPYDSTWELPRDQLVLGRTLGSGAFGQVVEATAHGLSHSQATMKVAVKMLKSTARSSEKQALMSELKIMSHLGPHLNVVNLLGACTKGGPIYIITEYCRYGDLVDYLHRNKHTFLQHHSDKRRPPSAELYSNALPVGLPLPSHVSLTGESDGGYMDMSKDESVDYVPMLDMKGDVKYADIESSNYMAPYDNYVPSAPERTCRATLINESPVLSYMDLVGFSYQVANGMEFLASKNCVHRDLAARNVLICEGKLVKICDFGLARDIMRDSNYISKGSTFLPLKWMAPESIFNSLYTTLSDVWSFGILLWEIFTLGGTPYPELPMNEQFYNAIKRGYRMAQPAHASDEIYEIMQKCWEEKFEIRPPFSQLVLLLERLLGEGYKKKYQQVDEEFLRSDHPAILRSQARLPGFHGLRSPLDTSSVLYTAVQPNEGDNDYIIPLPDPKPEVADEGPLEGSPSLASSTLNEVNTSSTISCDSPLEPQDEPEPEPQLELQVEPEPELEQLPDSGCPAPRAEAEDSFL
assaySummary: PDGFRβ LanthaScreen Assay
conditionNotes: read-out: PDGFR Lantha IC50
Hi! Could you tag entries with IC50 below 5 nM as yes (1), and those at or above as no (0)? Much appreciated.

>  <compound>
Cc1ncc(C(=O)NCCN2CCC(C)(C)C2)cc1NC(=O)c1cnn2cc(-c3ccncc3)sc12

>  <className>
no (0)

$$$$
>  <compound>
CCCNCC(=O)Nc1cnc(C)c(NC(=O)c2cnn3cc(-c4cnn5c4CCC5)sc23)c1

>  <className>
yes (1)

$$$$
>  <compound>
Cc1ncc(NC(=O)CN2C[C@H](C)O[C@@H](C)C2)cc1NC(=O)c1cnn2cc(-c3cnn(C)c3)sc12

>  <className>
yes (1)

$$$$
>  <compound>
Cc1ncc(NC(=O)CN2CCC23CCC3)cc1NC(=O)c1cnn2cc(-c3ccnc(N4CCOCC4)c3)sc12

>  <className>
yes (1)

$$$$
>  <compound>
COc1cccc(-c2cn3ncc(C(=O)Nc4cc(NC(=O)CN5C[C@H](C)O[C@@H](C)C5)cnc4C)c3s2)n1 (relative stereo)

>  <className>
yes (1)

$$$$
>  <compound>
Cc1ncc(NC(=O)CN2CCC23CCC3)cc1NC(=O)c1cnn2cc(-c3cnn4c3OCCC4)sc12

>  <className>
yes (1)

$$$$
>  <compound>
Cc1cc(C(=O)NCCN2CCCC23CC3)sc1NC(=O)c1cnn2cc(-c3cnn(C)c3)sc12

>  <className>
no (0)

$$$$
>  <compound>
Cc1ncc(NC(=O)CN2CCCC[C@H]2C)cc1NC(=O)c1cnn2cc(-c3cnn(CCO)c3)sc12

>  <className>
no (0)

$$$$
>  <compound>
Cc1ncc(C(=O)NCCN2CCCC2)cc1NC(=O)c1cnn2cc(-c3cn(C)nc3C)sc12

>  <className>
yes (1)

$$$$
>  <compound>
COCCn1cc(-c2cn3ncc(C(=O)Nc4cc(NC(=O)CCN5CCCC5(C)C)cnc4C)c3s2)cn1

>  <className>
yes (1)

$$$$
>  <compound>
Cc1ncc(NC(=O)CCCN2CCC23CCC3)cc1NC(=O)c1cnn2cc(-c3cnn(C)c3)sc12

>  <className>
no (0)

$$$$
>  <compound>
COCCn1cc(-c2cn3ncc(C(=O)Nc4cc(NC(=O)CN5CCC(C6CC6)C5)cnc4C)c3s2)cn1 (stereo not shown)

>  <className>
yes (1)

$$$$
>  <compound>
Cc1ncc(NC(=O)CN2CCCC2(C)C)cc1NC(=O)c1cnn2cc(-c3cnn4c3COCC4)sc12

>  <className>
yes (1)

$$$$

Source: patent US20240109917A1
